biological target: KDR (phospho-KDR, VEGF165-stimulated HUVEC cells) (Homo sapiens (Human)); assay: KDR autophosphorylation ELISA in HUVEC cells (Example G); format: cell-based; details: cellular activity; KDR autophosphorylation ELISA in HUVEC cells
Sequence (P35968 20-1356): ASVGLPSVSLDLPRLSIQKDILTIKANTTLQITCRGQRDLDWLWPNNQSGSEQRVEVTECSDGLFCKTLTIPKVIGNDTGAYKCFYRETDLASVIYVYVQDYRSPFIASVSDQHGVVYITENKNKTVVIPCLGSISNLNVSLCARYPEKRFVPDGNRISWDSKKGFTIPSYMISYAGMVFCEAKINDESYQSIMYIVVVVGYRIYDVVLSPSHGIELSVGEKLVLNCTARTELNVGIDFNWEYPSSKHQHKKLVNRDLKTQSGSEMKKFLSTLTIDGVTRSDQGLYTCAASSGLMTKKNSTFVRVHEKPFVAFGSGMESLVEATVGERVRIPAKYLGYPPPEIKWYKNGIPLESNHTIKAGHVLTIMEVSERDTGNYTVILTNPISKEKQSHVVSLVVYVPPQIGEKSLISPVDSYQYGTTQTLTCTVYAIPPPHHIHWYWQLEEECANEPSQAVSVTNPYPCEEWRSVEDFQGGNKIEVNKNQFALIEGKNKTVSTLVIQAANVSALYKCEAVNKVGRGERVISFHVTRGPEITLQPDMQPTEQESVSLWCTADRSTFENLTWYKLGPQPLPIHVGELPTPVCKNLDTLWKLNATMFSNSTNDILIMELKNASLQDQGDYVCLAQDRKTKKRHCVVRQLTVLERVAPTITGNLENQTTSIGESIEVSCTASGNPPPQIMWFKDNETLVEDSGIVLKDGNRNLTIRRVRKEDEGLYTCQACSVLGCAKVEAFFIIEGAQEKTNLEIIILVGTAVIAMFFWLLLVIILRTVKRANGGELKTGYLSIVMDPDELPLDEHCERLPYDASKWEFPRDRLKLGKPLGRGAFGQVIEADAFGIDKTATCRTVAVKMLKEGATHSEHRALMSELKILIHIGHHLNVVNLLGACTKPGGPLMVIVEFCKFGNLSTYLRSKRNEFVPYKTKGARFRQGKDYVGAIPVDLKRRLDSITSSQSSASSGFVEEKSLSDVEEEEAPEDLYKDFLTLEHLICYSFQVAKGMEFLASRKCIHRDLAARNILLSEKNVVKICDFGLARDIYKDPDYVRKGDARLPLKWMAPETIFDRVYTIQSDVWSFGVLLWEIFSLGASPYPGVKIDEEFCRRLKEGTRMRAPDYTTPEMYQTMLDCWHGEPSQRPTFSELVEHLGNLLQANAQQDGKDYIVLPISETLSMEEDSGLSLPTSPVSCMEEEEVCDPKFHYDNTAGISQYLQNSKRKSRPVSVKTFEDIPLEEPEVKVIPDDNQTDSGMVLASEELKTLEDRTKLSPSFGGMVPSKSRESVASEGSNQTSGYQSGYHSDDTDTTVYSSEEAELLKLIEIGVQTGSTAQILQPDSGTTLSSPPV
pIC50: −log10 of the molar value.
OUTCOME_MEASURE: pIC50

Per the records, this compound ( `COc1cc2nccc(Oc3ccc(NC(=O)c4c(OC)n(C)c(C)c(-c5ccc(F)cc5)c4=O)cc3F)c2nc1OC` ) has pIC50 equal to 6.52 to 7.00

For reference, reported pIC50 for `CCOc1nc2c(Oc3ccc(NC(=O)c4cnc(C)c(-c5ccc(F)cc5C)c4O)cc3)ccnc2cc1OC` stands at > 7.00

Entry `COc1cc2nccc(Oc3ncc(NC(=O)c4cn(-c5ccn(C)n5)cc(-c5ccc(F)cc5)c4=O)cc3F)c2cc1OC` — recorded pIC50 = < 6.52

Noted for `COc1cc2nccc(Oc3ccc(NC(=O)c4cn(C)c(OC)c(-c5ccc(F)cc5)c4=O)cc3F)c2nc1OC` : its pIC50 reads 6.52 to 7.00

---

biological target: Human KDR (residues 790-1356) (Homo sapiens (Human), UniProt P35968); experiment: Human KDR kinase assay, HTRF KinEase (Example B-2); assay type: biochemical; settings: protocol of Example B-2
Sequence (P35968 790-1356): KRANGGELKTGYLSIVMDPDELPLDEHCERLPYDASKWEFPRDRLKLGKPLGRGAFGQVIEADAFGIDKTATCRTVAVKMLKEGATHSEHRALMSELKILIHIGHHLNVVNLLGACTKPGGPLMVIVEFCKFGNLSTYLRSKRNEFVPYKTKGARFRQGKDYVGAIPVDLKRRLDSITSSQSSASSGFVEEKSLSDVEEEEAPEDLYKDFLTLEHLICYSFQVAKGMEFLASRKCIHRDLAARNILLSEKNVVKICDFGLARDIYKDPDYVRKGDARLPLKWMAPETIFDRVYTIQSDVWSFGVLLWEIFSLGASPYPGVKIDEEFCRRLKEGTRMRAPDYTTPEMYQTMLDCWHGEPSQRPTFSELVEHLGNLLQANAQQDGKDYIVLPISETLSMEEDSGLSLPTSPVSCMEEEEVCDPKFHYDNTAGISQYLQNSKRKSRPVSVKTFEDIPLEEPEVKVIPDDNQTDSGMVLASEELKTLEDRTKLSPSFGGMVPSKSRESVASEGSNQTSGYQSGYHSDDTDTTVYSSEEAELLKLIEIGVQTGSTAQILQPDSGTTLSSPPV
pIC50: −log10 of the molar value. Counter-ions that a name gives are not always drawn.
Give pIC50 for every item shown.

Reported pIC50 for COc1cnc2c(Oc3ccc(NC(=O)c4cn(C)c(OC)c(-c5ccc(F)cc5)c4=O)cc3F)ccnc2c1 [Compound 587] was < 6.52

Recorded result, Cc1cc(F)ccc1-c1c(C)nc(C)c(C(=O)Nc2ccc(Oc3ccnc4cccnc34)c(F)c2)c1O [Compound 505] , pIC50: < 6.52

Please fill in: pIC50 reported for Cc1ncc(C(=O)Nc2ccc(Oc3ccnc4cc(-c5cnn(C(F)F)c5)cnc34)c(F)c2)c(O)c1-c1ccc(F)cc1 [Compound 610, hydrochloride] = 6.52 to 7.00

The measured pIC50 associated with COc1nc2c(Oc3ccc(NC(=O)c4cnc(C)c(-c5ccc(F)cc5)c4O)cc3F)ccnc2cc1C(C)C [Compound 590] reads < 6.52

get_value(item= COCCOc1cc2nccc(Oc3ccc(NC(=O)c4c(COC)nc(C)c(-c5ccc(F)cc5)c4O)cc3F)c2nc1OC [Compound 482] , readout=pIC50) returns > 7.00

Documented pIC50 of C=C(C)c1cnc2c(Oc3ccc(NC(=O)c4cnc(C)c(-c5ccc(F)cc5)c4O)cc3F)ccnc2c1 [Compound 456] : > 7.00

Sure, the documented pIC50 for COCCOc1nc2c(Oc3ccc(NC(=O)c4cn(C)c(CF)c(-c5ccc(F)cc5)c4=O)cc3F)ccnc2cc1OC [Compound 557] is 6.52 to 7.00

---

target: KDR (phospho-KDR, VEGF165-stimulated HUVEC cells) (Homo sapiens (Human)); test: KDR autophosphorylation ELISA in HUVEC cells (Example G); format: cell-based; settings: cellular activity; KDR autophosphorylation ELISA in HUVEC cells
pIC50: −log10 of the molar value. Where a name gives a salt, the structure may show the parent alone.
OUTCOME_MEASURE: pIC50

`C=Cc1c(C)c(C(=O)Nc2ccc(Oc3ccnc4cc(OC)c(OC)nc34)c(F)c2)c(=O)n(-c2ccc(F)cc2)c1C` has a reported pIC50 of > 7.00

Item: `COc1cnc2c(Oc3ccc(NC(=O)c4c(C)c(Br)c(C)n(-c5ccc(F)cc5)c4=O)cc3)ccnc2c1` | pIC50: 6.52 to 7.00

// pIC50 lookup, molecule = `COc1cnc2c(Oc3ccc(NC(=O)c4cnc(C)c(-c5ccc(OC)c(F)c5)c4O)cc3F)ccnc2c1` , result: > 7.00

Summary for this molecule, `COCCOc1nc2c(Oc3ccc(NC(=O)c4ccc(C)n(-c5ccc(F)cc5)c4=O)cc3F)ncnc2cc1OC` : pIC50 is > 7.00

For this molecule ( `COc1cnc2c(Oc3ccc(NC(=O)c4c(C)nc(C)c(-c5ccc(F)cc5C)c4O)cc3F)ccnc2c1` ), measured pIC50 is > 7.00

pIC50 in this record for `COc1cc2nccc(Oc3ccc(NC(=O)c4c(C)c(C)c(C)n(-c5ccccc5)c4=O)cc3F)c2nc1OC` : 6.52 to 7.00

The recorded pIC50 for entry COc1cc2nccc(Oc3ccc(NC(=O)c4cn(C(C)C)c(C)c(-c5cccc(F)c5)c4=O)cc3F)c2nc1OC [Compound 30, hydrochloride] equals < 6.52

Looking up `Cc1cc2nccc(Oc3ccc(NC(=O)c4c(C)nc(C)c(-c5ccc(F)cc5)c4O)cc3F)c2nc1F` , I found its pIC50 recorded as > 7.00

pIC50 reported for this molecule `COc1cc2nccc(Oc3ccc(NC(=O)c4cnc(C)c(-c5ccc(F)cc5)c4O)cc3F)c2nc1C` : > 7.00

For this molecule ( `COc1cc2nccc(Oc3ccc(NC(=O)c4c(C)[nH]nc(-c5ccc(F)cc5C)c4=O)cc3F)c2nc1OC` ), measured pIC50 is > 7.00

Value of measured pIC50 for the entry `COc1cc2nccc(Oc3ccc(NC(=O)c4cn(C5CN(C)C5)cc(-c5ccc(F)cc5)c4=O)cc3F)c2nc1OC` : < 6.52

Record `CCc1nc(C)c(-c2ccc(F)cc2C)c(O)c1C(=O)Nc1ccc(Oc2ccnc3ccc(OC)nc23)c(F)c1` , field pIC50: > 7.00

pIC50 in this record for `COc1cc2nccc(Oc3ccc(NC(=O)c4cnc(CO)c(-c5ccc(F)cc5)c4O)cc3F)c2nc1OC` : > 7.00

// `CCOCc1nc(C)c(-c2ccc(F)cc2C)c(O)c1C(=O)Nc1ccc(Oc2ccnc3cc(OC)cnc23)c(F)c1` : pIC50 value = < 6.52

---

molecular target: KDR (phospho-KDR, VEGF165-stimulated HUVEC cells) (Homo sapiens (Human)); assay: KDR autophosphorylation ELISA in HUVEC cells (Example G); assay type: cell-based; conditions: cellular activity; KDR autophosphorylation ELISA in HUVEC cells
pIC50: −log10 of the molar value. Where a name gives a salt, the structure may show the parent alone.
OUTCOME_MEASURE: pIC50

According to the records, this molecule `COCCOc1cc2nccc(Oc3ccc(NC(=O)c4c(C)ccn(-c5ccc(F)cc5)c4=O)cc3F)c2nc1OC` displays pIC50 of > 7.00

Per the record, `COc1cnc2c(Oc3ccc(NC(=O)c4cnc(C)c(-c5ccc(F)c(OC)c5)c4O)cc3F)ccnc2c1` has pIC50 of > 7.00

GET /value?item= `COc1cnc2c(Oc3ccc(NC(=O)c4cnc(C5CC5)c(-c5ccc(F)cc5)c4O)cc3F)ccnc2c1` &field=pIC50 returns < 6.52

The molecule `COc1cc(NC(=O)c2cn(C)c(C)c(-c3ccc(F)cc3)c2=O)ccc1Oc1ccnc2cc(OC)c(OC)nc12` showed pIC50 equal to > 7.00

Recorded result, `COc1cc2nccc(Oc3ccc(NC(=O)c4cnc(C)n(-c5ccc(F)cc5)c4=O)cc3F)c2nc1OC` , pIC50: > 7.00

Value of pIC50 reported for the molecule `COc1cc2nccc(Oc3ccc(NC(=O)c4cn(C)c(C)c(-c5ccc(F)cc5)c4=O)cc3)c2nc1OC` is > 7.00

The recorded pIC50 for `COc1ccc(-c2c(C)nc(C)c(C(=O)Nc3ccc(Oc4ccnc5cc(OC)c(OC)nc45)c(F)c3)c2O)cc1C` is > 7.00

Lab book: pIC50 of `COc1cnc2c(Oc3ccc(NC(=O)c4nn(C)c(C)c(-c5ccc(F)cc5)c4=O)cc3)ccnc2c1` noted as < 6.52

Field pIC50 (entry `COc1cnc2c(Oc3ccc(NC(=O)c4c(C)ccn(-c5ccc(F)cc5)c4=O)cc3F)ccnc2c1` ) reads > 7.00

Recorded pIC50 (molecule `COCc1cnn(-c2ccc(F)cc2)c(=O)c1C(=O)Nc1ccc(Oc2ccnc3cc(OC)c(OC)nc23)cc1` ): > 7.00

Lookup result for `COc1nc2c(Oc3ccc(NC(=O)c4c(C)nc(C)c(-c5ccc(F)cc5C)c4O)cc3F)ccnc2cc1C` ; measured pIC50: > 7.00

The molecule listed as `CCOc1c(C(=O)Nc2ccc(Oc3ccnc4cc(OC)c(OC)nc34)c(F)c2)nnc(C)c1-c1ccc(F)cc1` has a reported pIC50 of > 7.00

Reported pIC50 ( `COc1cnc2c(Oc3ccc(NC(=O)c4c(C)ccn(-c5ccc(F)cc5)c4=O)cc3)ccnc2c1` ) = > 7.00

# molecule `COc1cc2nccc(Oc3ccc(NC(=O)c4c(C)nc(C)c(-c5ccc(F)c(F)c5)c4O)cc3F)c2nc1OC` ; its pIC50 = > 7.00

Measured pIC50 of COc1cc2nccc(Oc3ccc(NC(=O)c4cn(C)c(C)c(-c5cccc(F)c5)c4=O)cc3F)c2nc1OC [Compound 37, hydrochloride] : 6.52 to 7.00

For this molecule ( `COc1cnc2c(Oc3ccc(NC(=O)c4cn(C(C)C)c(C)c(-c5ccc(F)cc5)c4=O)cc3F)ccnc2c1` ), measured pIC50 is < 6.52

Reported pIC50 ( `COc1cnc2c(Oc3ccc(NC(=O)c4cnc(CO)c(-c5ccc(F)cc5)c4O)cc3)ccnc2c1` ) = > 7.00

Recorded pIC50 (molecule `COc1cnc2c(Oc3ccc(NC(=O)c4nn(C(C)C)c(C)c(-c5ccc(F)cc5)c4=O)cc3F)ccnc2c1` ): < 6.52

For `COc1cc2nccc(Oc3ccc(NC(=O)c4c(C)c(Br)c(C)n(-c5ccc(F)cc5)c4=O)cc3F)c2nc1OC` the molecule record lists pIC50 as 6.52 to 7.00

Summary for this molecule, `COc1cc2ncnc(Oc3ccc(NC(=O)c4ccc(C)n(-c5ccc(F)cc5)c4=O)cc3F)c2nc1OC` : pIC50 is > 7.00

Sure, the documented pIC50 for `COc1cc2nccc(Oc3ccc(NC(=O)c4cnc(COC(C)=O)c(-c5ccc(F)cc5)c4O)cc3F)c2nc1OC` is > 7.00

Briefly, pIC50 measured for `COc1cnc2c(Oc3c(F)cc(NC(=O)c4c(C)nc(C)c(-c5ccc(F)cc5C)c4O)cc3F)ccnc2c1` : > 7.00

Item: `COc1cnc2c(Oc3ccc(NC(=O)c4cnc(C)c(-c5ccc(F)cc5OC)c4O)cc3F)ccnc2c1` | pIC50: > 7.00

Per the record, `COc1cc2nccc(Oc3ccc(NC(=O)c4c(C)nc(C)c(-c5ccc(F)cc5C)c4O)cc3)c2nc1OC` has pIC50 of > 7.00

pIC50 reported for this molecule `COc1ccc2nccc(Oc3ccc(NC(=O)c4cnc(C)n(-c5ccc(F)cc5)c4=O)cc3F)c2n1` : 6.52 to 7.00

The molecule identified as `COc1cc2nccc(Oc3ccc(NC(=O)c4cn(C)c(C)c(-c5ccc(F)cc5C)c4=O)cc3F)c2nc1OC` registered its pIC50 at > 7.00

Looking up `CCOc1c(C(=O)Nc2ccc(Oc3ccnc4cc(OC)c(OC)nc34)c(F)c2)cnc(C)c1-c1ccc(F)cc1` , I found its pIC50 recorded as 6.52 to 7.00

// recorded pIC50 for Cc1nc2c(Oc3ccc(NC(=O)c4cnc(C)c(-c5ccc(F)cc5)c4O)cc3F)ccnc2cc1-c1cccnc1 [Compound 618, hydrochloride] : > 7.00
